Reference source: ChEMBL document CHEMBL3885861

- Organism: Rattus norvegicus
- protocol-text: Open TG-GATES - Regimen: Daily Repeat
- Format: toxicity, organism-based, Sprague-Dawley
- Set-up: regimen Daily Repeat, gender Male, age 6 weeks
- study-conditions: in vivo, po, 0 mg/kg, […], tissue Blood, route gavage, dose level Control, time 14 day
# strict inequality: Lym < 80% yields yes (1), everything else yields no (0)

# line-notation, assigned-class
rows = [
    ("C#C[C@]1(O)CC[C@H]2[C@@H]3CCC4=Cc5oncc5C[C@]4(C)[C@H]3CC[C@@]21C", "no (0)"),
    ("Cc1cccc(Nc2ccccc2C(=O)O)c1C", "yes (1)"),
]
